- procedure-summary: NCI Yeast Anticancer Drug Screen. Data for the mec2-1 strain (AID 157)
- assay-setup: S. cerevisiae mec2-1 strain, at 5.0 µM (retest, dose inferred, filed as 0.5), stronger effect = higher value
The panel holds about 79,000 compounds, 15% with a hit somewhere; the sample as a whole holds those more often.
Reported values of growth inhibition for individual entries
Lab book: enter the figure in %, no units written.

molecule	reading-unit	experimental-value
O=C(/C(=C\c1ccccc1)c1ccccc1)c1ccc(Br)cc1	%	3
CCN(CC)C(=O)C(C)OC(C)=O (configuration not stated)	%	2
O=C1c2cc([N+](=O)[O-])cc3cc([N+](=O)[O-])cc(c23)C(=O)N1CCCNCCNCCCN1C(=O)c2cc([N+](=O)[O-])cc3cc([N+](=O)[O-])cc(c23)C1=O	%	32

Qu. May I ask what growth inhibition has been recorded for C1=C(c2ccccc2)CCc2ccccc21 ?
Ans. 5

Qu. Look up growth inhibition for this molecule: Cc1ccnc(-c2cc(C)ccn2)c1
Ans. -3

Qu. Using the record for O=c1oc2c3ccc4ccccc4c3n(CCCN3CCCCC3)c2c2ccccc12 , report its growth inhibition.
Ans. 17

Qu. # input molecule: Cc1ccccc1NC(=O)Cc1csc(N=Nc2c(O)[nH]c3ccccc23)n1 ; wanted: its growth inhibition
Ans. 1

Qu. // query growth inhibition value for entry CCCCCCCSCC1C(=O)C23CC1CCC2C12COC(O)C1C(C)(C)C(O)CC2OC3=O (configuration not stated)
Ans. 1

Qu. Please look up its growth inhibition: O=S(=O)(c1ccccc1)C1CN=NC1c1ccccc1 (configuration not stated)
Ans. -16

Qu. What measured growth inhibition goes with O=C1CSC(c2ccc(Cl)cc2)N1c1ccc(-c2ccc(-n3c(-c4ccccc4)nc4ccccc4c3=O)cc2)cc1 (configuration not stated) ?
Ans. 2

Qu. Using the record for CCCCN(CCCC)CCCC(O)c1c2ccc(Cl)cc2nc2ccc(OC)cc12 (configuration not stated) , report its growth inhibition.
Ans. -1

Qu. Look at this molecule and give its reported growth inhibition. CCCCNCc1c(O)ccc2ccccc12
Ans. 3

Qu. Please look up its growth inhibition: CC(C)(C)C1=CC(N2CCCCC2)(C(C)(C)C)C=C(C(C)(C)C)C1=O
Ans. -2

###

- procedure-summary: NCI Yeast Anticancer Drug Screen. Data for the bub3 strain (AID 167)
- assay-setup: S. cerevisiae bub3 mutant strain, at 50.0 µM, stronger effect = higher value
About 79,000 compounds went through this panel and 15% of them were active in at least one assay; those are over-represented in the sample as a whole.
growth inhibition by entry:
Please reply with the bare figure in % and do not write the unit itself.

Below, 4 molecules whose answers are already recorded.
molecule	growth inhibition, %
Cc1cccc2c(C(=O)CBr)cc(-c3ccc(Cl)cc3)nc12	95
CN1/C(=C/C=C/C(I)=C/C=C/C2=[N+](C)c3ccccc3C2(C)C)C(C)(C)c2ccccc21	76.3
O=[N+]([O-])c1ccc(/C=N/O)s1	99.7
Cc1ccc(Cl)cc1NN	96.9

Qu. Give the measured growth inhibition of Cc1ccc(S(=O)(=O)OCC(C)(C)C)cc1 .
Ans. 86.8

Qu. State the recorded growth inhibition for this entry: COc1ccc2c(Cc3ccc(O)cc3)cncc2c1O
Ans. 71.5

Qu. Recorded growth inhibition of N#CC(C(=O)C(=O)Nc1ccc(Cl)c(Cl)c1)c1c(Cl)cccc1Cl (stereo not drawn) , please.
Ans. -3.2

Qu. Any idea what growth inhibition was measured for CCCCC1(C(O)CC)Sc2ccccc2N1C (stereo not drawn) ?
Ans. 61.6

Qu. Given CN=C(NC1CCCCC1)c1ccc(NC(=O)c2ccc(C(=O)Nc3ccc(C(=NC)NC4CCCCC4)cc3)cc2)cc1 , state its recorded growth inhibition.
Ans. 33.7

Qu. Need growth inhibition of CCCC(C)C/C(C)=C\C(C)(C)C1CC(=O)N(CC)C1=O (stereo not drawn) , thanks.
Ans. 70.9

Qu. What value of growth inhibition has been reported for the following molecule? CCC(/C=C/c1ccccc1)=N\Nc1ccccc1
Ans. 87.3

Qu. # query: growth inhibition of entry CC(=O)Nc1ccc(-c2nnc(SCC(=O)Nc3ccc([N+](=O)[O-])cc3)o2)cc1
Ans. 82

Qu. // query growth inhibition value for entry Cc1ccc2ccc3c(CCN(C)C)cc4c(c3c2c1O)OCO4
Ans. 92.5

Qu. Need growth inhibition of Cc1ccc2c(c1)nc1n2C(N)=Nc2ccccc2S1 , thanks.
Ans. 75.2

Qu. // returns reported growth inhibition for input O=C1c2ccccc2C(=O)c2c(NCCNCCO)ccc(O)c21
Ans. 85.3

Qu. Name the reported growth inhibition value associated with the molecule CCN(CC)C(=S)N/N=C/c1cc(OC)ccc1O
Ans. 61.5

Qu. I'd like to know its growth inhibition. The molecule in question is Nc1cn(C2OC(CC(c3ccccc3)(c3ccccc3)c3ccccc3)C(O)C2O)c(=O)[nH]c1=O (stereo not drawn)
Ans. 46.5

###

- procedure-summary: NCI Yeast Anticancer Drug Screen. Data for the sgs1 mgt1 strain (AID 161);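 note: 0% = growth of cultures given vehicle only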
- assay-setup: S. cerevisiae sgs1 mgt1 strain, at 50.0 µM (retest, dose inferred, filed as 5.0), stronger effect = higher value
Compounds without any hit were thinned out: in the full panel of roughly 79,000, 15% have a hit.
attribute-measured: growth inhibition (%)
Reply numerically in %, unit not repeated.

The examples below pair each entry with its known result.
molecule	growth inhibition (%)
C=CCN1CCC(OC(=O)C(O)(/C=C\CC)C2CCCC2)CC1 (stereo unspecified)	63
Cc1c2cc[n+]([O-])cc2c(C)c2c1oc1ccccc12	98
COc1ccc(C(CC(=O)c2ccccc2)Sc2ccccc2N)cc1 (stereo unspecified)	32

Qu. What value of growth inhibition has been reported for the following molecule? COc1cc(/C=C2\CCc3ccccc3C2=O)ccc1O
Ans. 99

Qu. Endpoint output: growth inhibition of COC12CC(=O)C(C(C)=O)=C(O)C1(C)c1c(OC(C)=O)c(C)c(O)c(C(C)=O)c1O2 (stereo unspecified) . Value?
Ans. 73

Qu. Data request, read-out growth inhibition, for COc1ccccc1NC(=S)N/N=C(/C)c1ccccn1
Ans. 61

Qu. Can you look up the measured growth inhibition of CN(C)C=Nc1ccc2nonc2c1 for me?
Ans. 16

Qu. Consider the molecule CCCCCCOC(=O)C(N)Cc1ccc(OC)cc1 (stereo unspecified) and give its measured growth inhibition.
Ans. 42

###

- procedure-summary: NCI Yeast Anticancer Drug Screen. Data for the cln2 rad14 strain (AID 165);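 note: 0% = growth equal to vehicle treated cultures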
- assay-setup: S. cerevisiae cln2 rad14 strain, at 50.0 µM (retest, dose inferred, filed as 5.0), stronger effect = higher value
This is part of a sample that, as a whole, favours compounds with a hit. Of some 79,000 tested, about 15% had one in any assay. Active and inactive are the calls of the source. Rule as the data show it: active = growth inhibition above about 70%; inactive = the rest.
attribute-measured: growth inhibition

Check out these entries, answers already filled in.
compound	growth inhibition
O[C@H](CNCCS)[C@@H](O)CNCCS	7% (inactive)
CC(=O)Oc1c(C2CCCCC2)cc([N+](=O)[O-])cc1[N+](=O)[O-]	99% (active)
CCN(CC)CCNc1cc(C)nc2c1ccc1c2ccc2c(NCCN(CC)CC)cc(C)nc21	95% (active)
CCOC(=O)CSC(=S)N1CCOCC1	-9% (inactive)
O=C(O)c1c[nH]c2cc(Cl)ccc2c1=O	1% (inactive)

Qu. Which value of growth inhibition has been reported for C/C(=N\NC(N)=S)c1ccc(C2CCCCC2)cc1 in the records?
Ans. 97% (active)

Qu. What growth inhibition value was documented for this compound, COc1ccc(-c2c(C#N)c(S)n(NS(=O)(=O)c3ccc(C)cc3)c(=O)c2C#N)cc1 ?
Ans. 64% (inactive)

Qu. Suppose we examine the compound O=C(O)c1ccccc1C(=O)c1ccc2c(c1)Cc1ccccc1-2 ; what growth inhibition value has been reported?
Ans. 31% (inactive)

Qu. Entry under review: Cc1ccccc1N1C(=O)c2ccccc2C1=O . Reported growth inhibition?
Ans. 9% (inactive)

Qu. Entry under review: O=C1c2c(Br)c(Br)c(Br)c(Br)c2C(=O)N1c1nccs1 . Reported growth inhibition?
Ans. 25% (inactive)

Qu. Query: growth inhibition; subject: CCCCOc1ccc(CC(O)CN2CCCCC2C)cc1 (stereo not given)
Ans. 57% (inactive)

Qu. Need growth inhibition, item CC1=C(C(=O)OC(C)C)C(c2ccccc2[N+](=O)[O-])C(C(=O)OC(CO[N+](=O)[O-])CO[N+](=O)[O-])=C(C)N1 (stereo not given)
Ans. 22% (inactive)

Qu. Param item = O/N=C(/Cc1ccccc1)c1ccc2c(c1)OCO2 ; retrieve measured growth inhibition.
Ans. 17% (inactive)

###

- procedure-summary: NCI Yeast Anticancer Drug Screen. Data for the mlh1 rad18 strain (AID 175)
- assay-setup: S. cerevisiae mlh1 rad18 strain growth inhibition; at 50.0 µM (retest, dose inferred, filed as 5.0); stronger effect = higher value
About 79,000 compounds went through this panel and 15% of them were active in at least one assay; those are over-represented in the sample as a whole.
Measured growth inhibition values are reported for all entries that follow.
Report as a plain number; the unit % is understood.

// worked examples, growth inhibition included
compound	growth inhibition / %
CC(=O)N1c2ccccc2Sc2c1ccc1ccccc21	92
C=C1CCC[C@@]2(C)CC[C@@H](/C(C)=C\C=C\C(C)(C)O)C[C@H]12	53
COC1=CC23C=CC1[C@@H](c1ccccc1)C2=C(C)C(=O)N3C(=O)NC1CCCCC1 (stereo partly specified)	-4
Cc1ccc(Nc2nc3c(s2)C(=O)c2ccccc2C3=O)cc1	97
CCOC(=O)c1c(N2CCCC2)nsc1Nc1ccc(F)cc1	88
CN(C)CC(CN(C)C)C(=O)C1CCCCC1	95
O=C(NC1=Nc2c(ncn2COCCO)S(=O)(=O)[N-]1)c1ccccc1.[Ag+]	99
CC12CCC(C(Br)(Br)C1=O)C2(C)C (stereo unspecified)	68

Qu. growth inhibition for O=C1c2ccccc2C(=O)c2c(NCCNCCO)ccc(O)c21 ?
Ans. 88

Qu. Requested field: growth inhibition. Item: CCOc1ccc2c(c1)CCC1C2CCC2(C)CC(O)CC12 (stereo unspecified)
Ans. 99

Qu. Look at this compound and give its reported growth inhibition. O=C(C(=O)n1ncc(Cl)c(Cl)c1=O)n1ncc(Cl)c(Cl)c1=O
Ans. 3
